Value source: PubChem BioAssay AID1159580

assayOverview: chemical genetic growth profiling, strain panel (AID 1159580);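 further: tested at 20 µM; growth read once vehicle control cultures reached saturation at 30 °C; 1 = growth at the plate median or of vehicle wells; lower values mean less growth of the strain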
measurementContext: S. cerevisiae deletion strains, growth OD, locus YOR061W, strain CKA2, hits give low values
Out of some 5,500 compounds screened, about 2,000 (36%) were called active. Another 18% or so got no clear call; they are omitted. The list shows a part of the results.
Overview of recorded normalized growth for various molecules
// no unit, no text: just the number

Recorded results for 3 molecules are shown here.
1. C[C@]12CCC3C(CC[C@H]4CC(=O)CC[C@]34C)C1CCC2=O (stereo not given in full)
0.923
2. N/C(=N/OC(=O)c1ccccc1Cl)c1ccc2nonc2c1
0.985
3. CCCc1nc(C(C)(C)O)c(C(=O)OCc2oc(=O)oc2C)n1Cc1ccc(-c2ccccc2-c2nn[nH]n2)cc1
0.989

Can you look up the measured normalized growth of CC1(C)C[C@@H]2C(=O)CC[C@H]3O[C@]3(C)CC[C@H]21 for me? 1.01

Can you look up the measured normalized growth of COc1ccc2c(=O)c(-c3cc4c(cc3OC)OCO4)coc2c1 for me? 1.02

Can you look up the measured normalized growth of Cc1c(C(=O)NCCNc2ccc(C(F)(F)F)cc2[N+](=O)[O-])cnn1-c1ccc(F)cc1 for me? 0.99

Can you look up the measured normalized growth of N#C/C(=C\C=C\c1ccccc1)c1nc2ccccc2[nH]1 for me? 0.908

Can you look up the measured normalized growth of COC(=O)C[C@H]1C(C)(C)[C@@H](OC(C)=O)[C@@H]2CC3C4CC(=O)O[C@@H](c5ccoc5)[C@]4(C)CCC3[C@@]1(C)C2=O (stereo not given in full) for me? 0.992

Can you look up the measured normalized growth of CC(=O)OCC(=O)[C@@]1(O)CCC2C3CCC4=CC(=O)CC[C@]4(C)[C@@]3(F)[C@@H](O)C[C@@]21C (stereo not given in full) for me? 1.01

Can you look up the measured normalized growth of N#Cc1c(N)sc2c1CCc1ccccc1-2 for me? 0.616

Can you look up the measured normalized growth of CSc1nc(Sc2n[nH]c(-c3ccccc3)n2)cc(Sc2n[nH]c(-c3ccccc3)n2)n1 for me? 1.02

Can you look up the measured normalized growth of CN1CCN(CCCN2c3ccccc3Sc3ccc(Cl)cc32)CC1 for me? 0.913
